The origin of these recorded values is patent US12552753B2.

Target: CCR8 (Homo sapiens)
Sequence (P51685 whole entry, the tested form may be a part): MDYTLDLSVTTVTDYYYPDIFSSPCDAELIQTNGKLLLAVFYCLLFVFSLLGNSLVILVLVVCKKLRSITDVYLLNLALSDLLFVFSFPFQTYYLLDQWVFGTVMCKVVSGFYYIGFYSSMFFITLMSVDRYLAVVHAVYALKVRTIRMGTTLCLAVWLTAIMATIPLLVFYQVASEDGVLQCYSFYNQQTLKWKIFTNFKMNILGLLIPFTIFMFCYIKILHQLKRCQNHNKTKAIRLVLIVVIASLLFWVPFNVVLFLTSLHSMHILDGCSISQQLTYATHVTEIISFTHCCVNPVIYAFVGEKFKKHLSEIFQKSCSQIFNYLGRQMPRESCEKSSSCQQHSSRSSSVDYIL
Assay: Tango assay (Tango-CCR8-Gal4-CHO-K1 cells, CCL1-stimulated, ONE-Glo luminescence)
Conditions: read-out: Tango Assay IC50, Inhibition of CCR8 Tango cell in vitro
measurement name: IC50 (nM)

These solved cases illustrate the format of a correct answer.
compound	measure unit	IC50
COC1CCC([C@@H](C)NS(=O)(=O)c2ccc(NC(=O)c3ccccc3C)c(C)c2)CC1 (single isomer, unassigned) [Compound 293B]	nM	46
Cc1ccccc1C(=O)Nc1ccc(S(=O)(=O)NC(C)C2CCCNC2)c2ccccc12 (stereo not shown)	nM	112

[a] Cc1ccccc1C(=O)Nc1ccc(S(=O)(=O)NC(C)C2CCNC2)c2ccccc12 (stereo not shown)
[b] CCCC(=O)N1CCCC(C(C)NS(=O)(=O)c2ccc(NC(=O)c3ccccc3C)c3ccccc23)C1 (stereo not shown)
Q) Please let me know which one, a or b , has a lower measured IC50 value. Select an item and report its label.
A) a
(a: 85 nM, b: 500 nM)
